system under test: Claudin 18.2 (CLDN18.2), expressed on CHOS-CLDN 18.2 / HEK293-CLDN 18.2 / HCC827-CLDN 18.2 cells (human, UniProt P56856 1-261)
test name: cell ELISA
quantity: EC50 (µg/mL)
Please respond with the number in µg/mL and leave the unit unwritten.

// solved cases for EC50 follow
{"columns": ["binder", "EC50 (µg/mL)"],
 "data": [
  ["QP14491446 (antibody, V domains shown) VH: EVQLVESGGGLVQPGGSLRLSCAASGFTFSSFGMHWVRQAPGKGLEWVSYISSGSNSIYYVDTVKGRFTISRDNAKNSLYLQMNSLRDEDTAVYYCARNAYYGNSFDYWGQGTLVTVSS VL: DIVMTQSPDSLAVSLGERATINCKSSQSLLNSGNQKNYLTWYQQKPGQPPKLLIYWASTRESGVPDRFSGSGSGTDFTLTISSLQAEDVAVYYCQNNYYYPLTFGGGTKVEIK", 0.158],
  ["QP207208 (antibody, V domains shown) VH: EVQLQQSGPELVKPGASVKMSCKASGYTFTSYIMHWVKQKPGQGLEWIGYINPYNDGTKYNEKFKGKATLTSDKSSSTVYMELSSLTSEDSAVYCCARLGFTTRNAMDYWGQGTSVTVSS VL: DIVMTQSPSSLSVSAGEKVTMNCKSSQSLLNSGNQKNYLAWYQQKPGQPPKLLIYGASTRESGVPDRFTGSGSGTDFTLTISSVQAEDLAVYYCQNDHSYPFTFGSGTKLEIK", 0.179],
  ["QP14431439 (antibody, V domains shown) VH: QVQLVQSGAEVKKPGASVKVSCKASGYAFSSYWMNWVRQAPGQGLEWMGQIYPGNGDTTYNGKFKGRVTMTRDTSTSTVYMELSSLRSEDTAVYYCARFVKGNAMDYWGQGTLVTVSS VL: DIVMTQSPDSLAVSLGERATINCKSSQSLLNSGNQKNYLTWYQQKPGQPPKLLIYWASTRESGVPDRFSGSGSGTDFTLTISSLQAEDVAVYYCQNAYSYPFTFGQGTKLEIK", 0.111],
  ["QP192193 (antibody, V domains shown) VH: QVQLQQSGAELVRPGSSVKISCKASGYAFSSYWMNWVKQRPGQGLEWIGQIYPGNGDTTYNGKFKGQATLTADKSSSTVYMQLSSLTSEDSAVYFCARFVKGNAMDYWGQGTSVTVSS VL: DIVMTQSPSSLTVTAGEKVTMSCKSSQSLLNSGNQKNYLTWYQQNPGQPPKMLIYWASTRESGVPDRFTGSGSGIDFSLTISSVQAEDLALYYCQNAYSYPFTFGSGTKLEIK", 0.101],
  ["QP14511447 (antibody, V domains shown) VH: EVQLVESGGGLVQPGGSLRLSCAASGFTFSSFGMHWVRQAPGKGLEWVAYISSGSNSIYYVDTVKGRFTISRDNAKNSLYLQMNSLRSEDTAVYYCARNAYYGNSFDYWGQGTLVTVSS VL: DIVMTQSPDSLAVSLGERATISCKSSQSLLNSGNQKNYLTWYQQKPGQPPKLLIYWASTRESGVPDRFSGSGSGTDFTLTISSLQAEDVAVYFCQNNYYYPLTFGGGTKVEIK", 0.202],
  ["QP14501446 (antibody, V domains shown) VH: EVQLVESGGGLVQPGGSLRLSCAASGFTFSSFGMHWVRQAPGKGLEWVAYISSGSNSIYYVDTVKGRFTISRDNAKNSLYLQMNSLRDEDTAVYYCARNAYYGNSFDYWGQGTLVTVSS VL: DIVMTQSPDSLAVSLGERATINCKSSQSLLNSGNQKNYLTWYQQKPGQPPKLLIYWASTRESGVPDRFSGSGSGTDFTLTISSLQAEDVAVYYCQNNYYYPLTFGGGTKVEIKR", 0.109]
]}

Kindly note the recorded EC50 for QP14651462 (antibody, V domains shown) VH: EVQLVQSGAEVKKPGASVKVSCKASGYTFTSYIMHWVRQAPGQGLEWIGYINPYNDGTKYNEKFKGRVTLTSDKSTSTVYMELSSLRSEDTAVYYCARLGFTTRNAMDYWGQGTLVTVSS VL: DIVMTQSPDSLAVSLGERATINCKSSQSLLNSGNQKNYLAWYQQKPGQPPKLLIYGASTRESGVPDRFTGSGSGTDFTLTISSVQAEDVAVYYCQNDHSYPFTFGQGTKLEIK , which is 0.119

Quick note, EC50 for QP14431440 (antibody, V domains shown) VH: QVQLVQSGAEVKKPGASVKVSCKASGYAFSSYWMNWVRQAPGQGLEWMGQIYPGNGDTTYNGKFKGRVTMTRDTSTSTVYMELSSLRSEDTAVYYCARFVKGNAMDYWGQGTLVTVSS VL: DIVMTQSPDSLAVSLGERATISCKSSQSLLNSGNQKNYLTWYQQKPGQPPKLLIYWASTRESGVPDRFSGSGSGTDFTLTISSLQAEDVAVYYCQNAYSYPFTFGQGTKLEIK landed at 0.124

What the record says about QP14651461 (antibody, V domains shown) VH: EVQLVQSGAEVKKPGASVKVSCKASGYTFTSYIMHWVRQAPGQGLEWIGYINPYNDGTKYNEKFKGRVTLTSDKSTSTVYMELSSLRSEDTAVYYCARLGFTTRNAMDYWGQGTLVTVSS VL: DIVMTQSPDSLAVSLGERATINCKSSQSLLNSGNQKNYLAWYQQKPGQPPKLLIYGASTRESGVPDRFTGSGSGTDFTLTISSLQAEDVAVYYCQNDHSYPFTFGQGTKLEIK : EC50 is 0.301

Entry QP14631462 (antibody, V domains shown) VH: QVQLVQSGAEVKKPGASVKVSCKASGYTFTSYIMHWVRQAPGQGLEWMGYINPYNDGTKYNEKFKGRVTMTRDTSTSTVYMELSSLRSEDTAVYYCARLGFTTRNAMDYWGQGTLVTVSS VL: DIVMTQSPDSLAVSLGERATINCKSSQSLLNSGNQKNYLAWYQQKPGQPPKLLIYGASTRESGVPDRFTGSGSGTDFTLTISSVQAEDVAVYYCQNDHSYPFTFGQGTKLEIK ; EC50 = 0.105
